All figures here come from the supplement of paper PMC7877785.

RUN_DESCRIPTION: self-splicing fitness, log relative to wild type (ln ratio); higher = more splicing; Tetrahymena group I intron in knt gene, E. coli kanamycin selection, DiMSum; sequences stand for … in CUCUCU…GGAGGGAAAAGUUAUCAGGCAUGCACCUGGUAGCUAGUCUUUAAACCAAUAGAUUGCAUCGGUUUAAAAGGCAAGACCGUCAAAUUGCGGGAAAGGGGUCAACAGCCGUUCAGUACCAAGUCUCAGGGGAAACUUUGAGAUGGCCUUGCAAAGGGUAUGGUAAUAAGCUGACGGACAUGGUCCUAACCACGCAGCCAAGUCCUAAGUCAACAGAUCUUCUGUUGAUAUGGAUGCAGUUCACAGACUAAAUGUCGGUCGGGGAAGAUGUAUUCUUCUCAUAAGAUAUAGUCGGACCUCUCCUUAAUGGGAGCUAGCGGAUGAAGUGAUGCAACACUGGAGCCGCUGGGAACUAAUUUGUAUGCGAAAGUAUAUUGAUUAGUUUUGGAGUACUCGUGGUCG;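 further: selection with 25 µg/mL kanamycin versus none on LB agar overnight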
ASSAY_CONTEXT: 37 °C
# if value of self-splicing fitness (ln) reaches -2, tag true (1); if it stays below, tag false (0)

GAUUAGCAAUAUUACGGAUU    false (0)
ACCUAGCAAUAUUACGAUAG    false (0)
GAGUAGCAAUAUUACGCGGC    true (1)
GGUUAGCAAUAUUACGGAAC    true (1)

API: above_or_equal(metric=self-splicing fitness (ln), cutoff=-2) for item GUUGAGCAAUAUUACGUAAG
true (1)

API: above_or_equal(metric=self-splicing fitness (ln), cutoff=-2) for item UCUUAGCAAUAUUACGCUGG
true (1)

API: above_or_equal(metric=self-splicing fitness (ln), cutoff=-2) for item CAGGAGCAAUAUUACGGAGG
true (1)
